Origin of the recorded values: ChEMBL document CHEMBL4138121

Assay: Dark toxicity against HMLE-shGFP cells after 72 hrs by MTT assay
Type: cell-based
Settings: human
PARAMETER_MEASURED: IC50 at 72 h (µM)

Oc1ccc2cc3ccccc3cc2c1
27
OCc1cc2cc3ccccc3cc2cc1O
11
OCc1ccc2cc3ccccc3cc2c1
33
Oc1cc2cc3ccccc3cc2cc1C(O)(c1ccccc1)c1ccccc1
6

* * *

Assay: Photocytotoxicity against HMLE-shEcad cells assessed as growth inhibition irradiated at 420 nm at 4, 24, 48 hrs post compound addition for 5 mins measured after 72 hrs by MTT assay
Type: functional, cell-based
Details: Homo sapiens, light or radiation study
pIC50: −log10 of the molar value.
PARAMETER_MEASURED: pIC50

OCc1cc2cc3ccccc3cc2cc1O
6.00
Oc1cc2cc3ccccc3cc2cc1C(O)(c1ccccc1)c1ccccc1
5.70
OCc1ccc2cc3ccccc3cc2c1
5.70
Oc1ccc2cc3ccccc3cc2c1
6.00
